Where these numbers come from: patent US20210040232A1

We begin with a simple list: items and their reported kon.
Target: T1, soluble Macaca fascicularis CTLA-4 expressed with a C-terminal myc-myc-polyhistidine tag (Macaca fascicularis)
T1 construct: soluble protein; also called mf CTLA-4.mmh; mfCTLA4.mmh
T1 chain: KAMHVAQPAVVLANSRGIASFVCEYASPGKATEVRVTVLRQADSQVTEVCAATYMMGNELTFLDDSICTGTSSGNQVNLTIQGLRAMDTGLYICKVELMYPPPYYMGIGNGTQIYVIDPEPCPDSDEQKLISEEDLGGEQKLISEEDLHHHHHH
Test: SPR, mAb capture, 25 C
# unit: M⁻¹ s⁻¹ | format: bare number

The examples below pair each entry with its known result.
H1H19278P (antibody, human IgG1, V domains shown) VH: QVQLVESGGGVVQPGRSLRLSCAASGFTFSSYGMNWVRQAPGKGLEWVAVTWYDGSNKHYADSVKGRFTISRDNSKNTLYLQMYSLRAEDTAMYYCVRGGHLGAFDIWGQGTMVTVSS VL: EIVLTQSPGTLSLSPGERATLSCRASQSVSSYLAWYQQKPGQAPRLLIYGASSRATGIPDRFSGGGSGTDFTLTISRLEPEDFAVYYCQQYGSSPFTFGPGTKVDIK	166000
H1H19312P (antibody, human IgG1, V domains shown) VH: QVQLQESGPGLVKPSETLSLTCTVSGGSISSYHWSWIRQPLGKGLEWIGYIYYSGSTNYNPSLKSRVTISVDTSKNQFSLKLSSVTAADTAVYYCARGGSSIWPFDYWGQGTLVTVSS VL: DIQMTQSPSTLSASVGDRVTITCRASQSISSWLAWYQQKSGKAPKLLISKASTLESGVPSRFSGSGSGTEFTLTISSLQPDDFATYYCQQYNIYSWTFGQGTKVEIK	333000
H1H19291P (antibody, human IgG1, V domains shown) VH: QVQLVESGGGVVQPGRSLRLSCAASGFTFSTYGMHWVRQAPGKGLEWVTVIWYDGNNKYYADSVKGRFTISRDNSKNTLYLQMNNLRAEDTALYYCARGGGRLSYYHDYWGQGTLVTVSS VL: DIQMTQSPSSLSASVGDRVTITCRASQSISTFLNWYQQKPGKAPNLLIYGTSSLQSGVPSRFSGSGSGTDFTLTISSLQPEDFAAYYCQQTYSTPFTFGPGTKVDIK	93100
H1H19273P (antibody, human IgG1, V domains shown) VH: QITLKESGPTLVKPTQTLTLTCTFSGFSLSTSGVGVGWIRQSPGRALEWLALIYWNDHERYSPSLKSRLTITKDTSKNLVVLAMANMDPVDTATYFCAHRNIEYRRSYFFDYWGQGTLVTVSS VL: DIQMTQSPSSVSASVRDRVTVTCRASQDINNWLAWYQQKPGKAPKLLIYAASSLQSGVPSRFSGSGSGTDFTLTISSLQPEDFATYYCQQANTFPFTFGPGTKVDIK	362000

Now let's try a different one.
Please look up its kon: H1H19303P (antibody, human IgG1, kappa, V domains shown, also called REGN4659) VH: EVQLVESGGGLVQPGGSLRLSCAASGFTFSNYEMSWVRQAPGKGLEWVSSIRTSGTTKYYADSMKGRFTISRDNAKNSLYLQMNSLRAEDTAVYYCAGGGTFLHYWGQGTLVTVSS VL: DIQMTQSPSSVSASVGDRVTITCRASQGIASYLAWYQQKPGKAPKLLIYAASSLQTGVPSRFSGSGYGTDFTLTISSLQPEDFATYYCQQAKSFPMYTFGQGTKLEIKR 156000
